I'd appreciate it if you could supply self-cleavage values for the items below.
B1: LINE1-full (parent)
chain: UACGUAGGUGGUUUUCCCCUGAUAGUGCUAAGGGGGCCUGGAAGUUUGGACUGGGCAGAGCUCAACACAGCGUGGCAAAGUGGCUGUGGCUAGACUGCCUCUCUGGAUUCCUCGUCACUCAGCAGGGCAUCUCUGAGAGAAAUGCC

variants of: B1; test: self-cleavage, relative activity (ratio to wild type); higher = more cleavage; in vitro, sequencing; the parent is a self-cleaving ribozyme
Give bare numbers.

Worked cases, answers included:
INSERT INTO assay_data (variant_designation, property_measured, measurement) VALUES
  ('G83A A121G', 'self-cleavage', 0.98),
  ('U12G A77G', 'self-cleavage', 1.41),
  ('U20A U134C', 'self-cleavage', 1.32),
  ('U15C U23C', 'self-cleavage', 0.94),
  ('A92G A94G', 'self-cleavage', 0.12),
  ('U87A A136U', 'self-cleavage', 0.1),
  ('C19U U119C', 'self-cleavage', 1.38),
  ('C76A U143A', 'self-cleavage', 1.65);

Hi, could you look up self-cleavage for each item in my list?
1. U62C C63A
2. G32A A129G
3. U20C C76U
4. U85C C99U
5. A2G A77G
6. A67G A79U
7. U15C U39G

Result string:
1: 0.01; 2: 0.93; 3: 2.18; 4: 0.07; 5: 1.36; 6: 0.73; 7: 1.6

Hi, could you look up self-cleavage for each item in my list?
1. A2G G137A
2. A31C U85C
3. U1C U9A
4. G7U C16U

Result string:
1. 0.61
2. 0.54
3. 0.75
4. 1.5

Hi, could you look up self-cleavage for each item in my list?
1. G32C U104G
2. G4A A136U
3. A30G A79U
4. C17U A94G

Result string:
1.26
1.51
0.5
0.31

Hi, could you look up self-cleavage for each item in my list?
1. U20A G41U
2. G32C U109A
3. A42C A92G

Result string:
1: 0.96; 2: 1.56; 3: 0.15
